runDescription: self-splicing fitness, log relative to wild type (ln ratio); higher = more splicing; Tetrahymena group I intron in knt gene, E. coli kanamycin selection, DiMSum; sequences stand for … in CUCUCU…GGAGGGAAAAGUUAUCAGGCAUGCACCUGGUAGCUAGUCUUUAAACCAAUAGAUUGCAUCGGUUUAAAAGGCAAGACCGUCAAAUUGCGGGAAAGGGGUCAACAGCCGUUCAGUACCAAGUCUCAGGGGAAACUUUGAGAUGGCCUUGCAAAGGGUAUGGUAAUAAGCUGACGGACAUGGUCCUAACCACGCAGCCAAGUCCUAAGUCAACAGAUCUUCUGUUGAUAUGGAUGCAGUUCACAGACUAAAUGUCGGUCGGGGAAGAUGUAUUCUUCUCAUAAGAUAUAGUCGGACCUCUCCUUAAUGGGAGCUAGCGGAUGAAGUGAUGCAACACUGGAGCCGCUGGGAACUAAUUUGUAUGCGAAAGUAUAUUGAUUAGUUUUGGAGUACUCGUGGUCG;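 further: selection with 25 µg/mL kanamycin versus none on LB agar overnight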
settings: 37 °C
Heads up, the class ranges for self-splicing fitness (ln) are bin 0 = under -2, bin 1 = from -2 up to -0.6, bin 2 = -0.6 and over

Reference set (10 entries):
* AUAUAGCAAUAUUACGCGGA | bin 1
* AAGCAGCAAUAUUACGUUCC | bin 1
* AGCUAGCAAUAUUACGGUAU | bin 1
* UCCAAGCAAUAUUACGGCGA | bin 2
* CUGGAGCAAUAUUACGUAGA | bin 0
* UAUAAGCAAUAUUACGAUUA | bin 2
* CCGCAGCAAUAUUACGAGUA | bin 0
* GAAAAGCAAUAUUACGCGGG | bin 0
* GACCAGCAAUAUUACGAAUU | bin 2
* UUCGAGCAAUAUUACGGCGG | bin 1

Using the reported self-splicing fitness (ln), which band applies to CAAAAGCAAUAUUACGGGCU ?
bin 0

Which self-splicing fitness (ln) band matches AGCAAGCAAUAUUACGUAGG ?
bin 0

State the band of ACUGAGCAAUAUUACGACGC
bin 2

Bin? CCGCAGCAAUAUUACGCCCU
bin 2

Kindly identify the class of AGUCAGCAAUAUUACGCGGU .
bin 1
